Recorded endpoint: logP

Clc1cc(Cl)c(Cl)c(Oc2ccc(Cl)c(Cl)c2)c1: 6.52
Clc1ccc(Oc2cc(Cl)c(Cl)cc2Cl)cc1: 5.99
Clc1cc(Cl)c(Cl)c(Oc2cc(Cl)c(Cl)cc2Cl)c1: 6.65
Clc1cc(Cl)c(Oc2ccccc2)c(Cl)c1Cl: 5.88
Clc1ccc(Oc2c(Cl)ccc(Cl)c2Cl)c(Cl)c1Cl: 6.47
Clc1ccc(Oc2c(Cl)cc(Cl)cc2Cl)c(Cl)c1: 6.11
Clc1cc(Cl)c(Cl)c(Oc2ccccc2)c1Cl: 5.82
Clc1cc(Cl)c(Oc2c(Cl)c(Cl)c(Cl)c(Cl)c2Cl)cc1Cl: 7.81
Clc1ccc(Oc2c(Cl)ccc(Cl)c2Cl)c(Cl)c1: 6.06
Clc1cc(Cl)cc(Oc2ccc(Cl)cc2Cl)c1: 6.13
Clc1ccc(Oc2ccc(Cl)cc2Cl)c(Cl)c1: 5.95
Clc1cc(Cl)c(Oc2cc(Cl)c(Cl)c(Cl)c2)cc1Cl: 7.11
Clc1cc(Oc2c(Cl)ccc(Cl)c2Cl)cc(Cl)c1Cl: 6.65
Clc1cc(Cl)c(Oc2ccc(Cl)c(Cl)c2Cl)cc1Cl: 7.01
Clc1cc(Cl)cc(Oc2ccccc2)c1: 5.21
Clc1cccc(Oc2ccc(Cl)c(Cl)c2Cl)c1: 6.07
Clc1ccc(Oc2ccccc2Cl)cc1Cl: 5.5
Clc1cc(Cl)c(Oc2c(Cl)c(Cl)cc(Cl)c2Cl)cc1Cl: 7.13
Clc1cc(Cl)c(Cl)c(Oc2ccccc2)c1: 5.62
Clc1ccc(Oc2ccc(Cl)c(Cl)c2Cl)cc1Cl: 6.51
Clc1ccc(Oc2cc(Cl)c(Cl)c(Cl)c2)cc1Cl: 6.83
Clc1c(Cl)c(Cl)c(Oc2ccccc2)c(Cl)c1Cl: 6.37
Clc1cc(Oc2cc(Cl)c(Cl)c(Cl)c2Cl)c(Cl)c(Cl)c1Cl: 7.78
Clc1cc(Cl)c(Oc2c(Cl)cccc2Cl)cc1Cl: 5.98
Clc1cccc(Oc2ccccc2)c1Cl: 5
Clc1cccc(Oc2ccc(Cl)c(Cl)c2Cl)c1Cl: 6.3

====

Recorded endpoint: logP

Clc1ccc(Oc2ccc(Cl)c(Cl)c2Cl)c(Cl)c1: 6.28
Clc1ccc(Cl)c(Oc2ccccc2)c1Cl: 5.35
Clc1ccc(Oc2cc(Cl)c(Cl)c(Cl)c2)cc1: 6.3
Clc1cc(Oc2ccccc2)cc(Cl)c1Cl: 5.7
Clc1ccccc1Oc1ccccc1: 4.45
Clc1ccc(Oc2ccc(Cl)c(Cl)c2)c(Cl)c1: 6.13
Clc1ccc(Oc2ccccc2)c(Cl)c1Cl: 5.55
Clc1ccc(Oc2cc(Cl)c(Cl)cc2Cl)cc1Cl: 6.6
Clc1cc(Cl)c(Oc2cccc(Cl)c2Cl)cc1Cl: 6.22
Clc1ccc(Oc2c(Cl)cc(Cl)cc2Cl)cc1: 5.92
Clc1cc(Cl)c(Oc2ccccc2)c(Cl)c1: 5.32
Clc1ccc(Oc2cc(Cl)c(Cl)c(Cl)c2)c(Cl)c1: 6.63
Clc1ccc(Oc2ccccc2Cl)cc1: 5.03
Clc1ccc(Oc2cc(Cl)cc(Cl)c2Cl)cc1: 6.01

====

Recorded endpoint: logP

Clc1ccc(Oc2c(Cl)cccc2Cl)c(Cl)c1Cl: 6.11
Clc1ccc(Oc2c(Cl)ccc(Cl)c2Cl)cc1Cl: 6.31
Clc1cc(Oc2cc(Cl)c(Cl)c(Cl)c2Cl)cc(Cl)c1Cl: 7.55
Clc1ccc(Oc2c(Cl)cccc2Cl)cc1: 5.3
Clc1ccc(Cl)c(Oc2cc(Cl)c(Cl)cc2Cl)c1: 6.22
Clc1ccc(Oc2cc(Cl)ccc2Cl)c(Cl)c1: 5.78
Clc1ccc(Oc2ccccc2)cc1Cl: 4.99
Clc1ccc(Oc2cc(Cl)c(Cl)cc2Cl)c(Cl)c1: 6.38
Clc1ccc(Oc2ccc(Cl)c(Cl)c2Cl)c(Cl)c1Cl: 6.82
Clc1cc(Oc2c(Cl)c(Cl)cc(Cl)c2Cl)c(Cl)c(Cl)c1Cl: 7.63
Clc1ccc(Oc2c(Cl)c(Cl)c(Cl)c(Cl)c2Cl)cc1: 6.95
Clc1ccc(Oc2cc(Cl)c(Cl)c(Cl)c2Cl)cc1Cl: 7.07
